- Target or system: SIRT1 (Homo sapiens)
- Sequence (Q96EB6 whole entry): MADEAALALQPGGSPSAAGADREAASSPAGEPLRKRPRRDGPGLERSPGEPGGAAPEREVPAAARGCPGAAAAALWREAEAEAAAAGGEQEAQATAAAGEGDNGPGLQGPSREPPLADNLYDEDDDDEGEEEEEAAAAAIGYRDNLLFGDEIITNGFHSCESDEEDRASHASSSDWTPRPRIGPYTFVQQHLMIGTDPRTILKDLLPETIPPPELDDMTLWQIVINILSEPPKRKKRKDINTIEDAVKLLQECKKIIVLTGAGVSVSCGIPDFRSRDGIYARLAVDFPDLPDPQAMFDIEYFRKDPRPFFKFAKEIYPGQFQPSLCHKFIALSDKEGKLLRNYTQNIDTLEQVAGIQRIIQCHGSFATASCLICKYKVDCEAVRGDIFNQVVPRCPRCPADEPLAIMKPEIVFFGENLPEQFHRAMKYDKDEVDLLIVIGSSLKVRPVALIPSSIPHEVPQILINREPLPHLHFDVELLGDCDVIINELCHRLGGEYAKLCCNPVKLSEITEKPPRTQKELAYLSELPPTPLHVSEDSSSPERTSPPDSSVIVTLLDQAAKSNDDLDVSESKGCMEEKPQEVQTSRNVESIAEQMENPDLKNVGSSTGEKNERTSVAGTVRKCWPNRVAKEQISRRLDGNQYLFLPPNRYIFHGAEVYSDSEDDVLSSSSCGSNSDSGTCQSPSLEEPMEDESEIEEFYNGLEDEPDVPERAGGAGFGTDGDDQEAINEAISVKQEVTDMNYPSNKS
- Experiment summary: TAMRA based mass spectrometry assay of SIRT1 deacetylase activation
- Format: biochemical
- Condition context: concentration that results in 150% activation of SIRT1; TAMRA peptide substrate
- Experimental: Mass spectrometry based assays were used to identify modulators of SIRT1 activity. […] The TAMRA based mass spectrometry assay was conducted as follows: 0.5 μM peptide substrate and 120 μM βNAD^+ was incubated with 10 nM SIRT1 for 25 minutes at 25° C. in a reaction buffer (50 mM Tris-acetate pH 8, 137 mM NaCl, 2.7 mM KCl, 1 mM MgCl2, 5 mM DTT, 0.05% BSA). […] Test compound was added at varying concentrations to this reaction mixture and the resulting reactions were monitored. […]
Observable: TAMRA EC1.5 (μM)

Examples with their reported TAMRA EC1.5 (μM) follow.
{"columns": ["Smiles notation", "Target or system", "Result"],
 "data": [
  ["O=C(Nc1cccc(N2CCOCC2)n1)c1ccnc2cc(-c3cccc(C(F)(F)F)c3)nn12", "SIRT1 (Homo sapiens)", "C (EC1.5>25 μM)"],
  ["O=C(Nc1cccnc1)c1cc(N2CCOCC2)nn2cc(-c3cccc(Cl)c3)nc12", "SIRT1 (Homo sapiens)", "C (EC1.5>25 μM)"],
  ["O=C(Nc1ccncc1)c1cc(N2CCOCC2)nn2cc(-c3ccccc3C(F)(F)F)nc12", "SIRT1 (Homo sapiens)", "A (EC1.5<1 μM)"],
  ["O=C(Nc1ccnc2cc(-c3ccccc3C(F)(F)F)nn12)c1cnccn1", "SIRT1 (Homo sapiens)", "A (EC1.5<1 μM)"],
  ["O=C(Nc1ccnc2cc(-c3cccc(C(F)(F)F)c3)nn12)c1cccc(N2CCC2)n1", "SIRT1 (Homo sapiens)", "C (EC1.5>25 μM)"],
  ["O=C(Nc1ccnc2cc(-c3ccccc3C(F)(F)F)nn12)c1cncnc1", "SIRT1 (Homo sapiens)", "C (EC1.5>25 μM)"]
]}

Proceeding to the next compound to report its TAMRA EC1.5 (μM).
IN: I'm curious: which TAMRA EC1.5 (μM) was measured for O=C(Nc1ccnc(N2CCOCC2)c1)c1ccnn2cc(-c3ccccc3C(F)(F)F)nc12 tested on SIRT1 (Homo sapiens)?
OUT: A (EC1.5<1 μM)
